Could you please report measured STK11 functional score for the items listed next?
B1: library; numbered along this chain (parent)
chain: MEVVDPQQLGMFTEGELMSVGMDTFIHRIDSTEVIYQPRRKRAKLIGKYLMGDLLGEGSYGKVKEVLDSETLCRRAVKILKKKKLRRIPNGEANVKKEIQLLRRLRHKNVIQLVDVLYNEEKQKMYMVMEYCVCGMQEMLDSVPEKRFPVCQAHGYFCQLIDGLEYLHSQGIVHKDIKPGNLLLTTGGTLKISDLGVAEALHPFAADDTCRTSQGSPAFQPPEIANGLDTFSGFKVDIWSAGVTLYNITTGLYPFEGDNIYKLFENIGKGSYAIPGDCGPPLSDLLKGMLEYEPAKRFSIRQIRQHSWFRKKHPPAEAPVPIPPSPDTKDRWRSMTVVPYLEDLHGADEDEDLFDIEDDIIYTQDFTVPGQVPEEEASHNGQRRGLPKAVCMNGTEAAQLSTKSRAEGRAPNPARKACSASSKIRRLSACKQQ

Variants of: B1
assay.explanation: STK11 functional score (HeLa growth suppression), rescaled enrichment; synonymous median = 1, nonsense median = 0 (normalised score)
study.conditions: with HeLa; variant type: missense
Format: numeric value only, no unit, no commentary.

May I ask what STK11 functional score has been recorded for M139S ?
0.816

Field entry: I360K
1.31

Another variant to check: E92L
1.01

Same read-out for M11C ?
1.69

Cool, now I303S
-0.209

Would you kindly repeat that for A153W ?
-0.261

Request: L184T
1.49

Q159W , same question.
0.972

Query R42K next
1.26

Proceed to V4D
1.45

Please answer likewise for P411R
0.986

Can you handle D358G next?
1.08

Queued: D343T
1.53

Repeat for the following variant: S59I
1.31

// same read-out, input: M289A
0.107

How about this variant: F255W
0.941

Proceed to S422C
1.44

How about R425F ?
1.11

Source: the supplement of paper PMC12338614
